target: CYP2D6 (Homo sapiens, UniProt P10635); construct: Human liver microsomes were obtained from BD Gentest; tissue BD Gentest; host or cells: human liver microsomes; test: CYP inhibition assay in human liver microsomes (2D6); assay type: in vitro ADME; conditions: human liver microsomes
Sequence (P10635 whole entry): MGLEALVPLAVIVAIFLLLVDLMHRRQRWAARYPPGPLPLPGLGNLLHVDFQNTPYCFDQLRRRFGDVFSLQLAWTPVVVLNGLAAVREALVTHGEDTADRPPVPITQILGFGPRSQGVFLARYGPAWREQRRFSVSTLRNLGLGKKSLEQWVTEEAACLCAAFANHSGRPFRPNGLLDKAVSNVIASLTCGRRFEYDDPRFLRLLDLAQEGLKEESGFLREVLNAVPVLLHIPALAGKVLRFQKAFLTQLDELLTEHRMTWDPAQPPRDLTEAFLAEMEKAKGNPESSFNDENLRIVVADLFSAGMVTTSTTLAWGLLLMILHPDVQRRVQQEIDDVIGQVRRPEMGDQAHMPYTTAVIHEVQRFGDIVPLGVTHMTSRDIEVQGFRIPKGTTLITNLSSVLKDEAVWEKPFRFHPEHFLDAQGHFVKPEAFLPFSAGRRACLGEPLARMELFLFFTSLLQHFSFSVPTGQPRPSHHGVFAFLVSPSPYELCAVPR
VALUE KIND: inhibition at 10 min, 10 µM (%)

{"COMPOUND": "Nc1ccc(-c2ccc(F)cc2)cc1NC(=O)N1Cc2nccnc2C1 [Comparator A]", "inhibition at 10 min, 10 µM [%]": 34}
{"COMPOUND": "Cc1cc2c(cn1)CN(C(=O)Nc1nc(-c3ccc(F)cc3)ccc1N)C2 [Comparator H]", "inhibition at 10 min, 10 µM [%]": 57}
{"COMPOUND": "Nc1ccc(-c2ccc(F)cc2)nc1NC(=O)N1Cc2ccncc2C1 [Comparator G]", "inhibition at 10 min, 10 µM [%]": 94}
{"COMPOUND": "COCc1cc2c(cn1)CN(C(=O)Nc1nc(-c3ccc(F)cc3F)ccc1N)C2 [Compound 1]", "inhibition at 10 min, 10 µM [%]": -1}
{"COMPOUND": "Nc1ccc(-c2ccc(F)cc2)nc1NC(=O)N1Cc2nccnc2C1 [Comparator B]", "inhibition at 10 min, 10 µM [%]": 9}
{"COMPOUND": "Nc1ccc(-c2cccs2)nc1NC(=O)N1Cc2nccnc2C1 [Comparator C]", "inhibition at 10 min, 10 µM [%]": 0.2}

a. Cc1ncc2c(n1)CN(C(=O)Nc1nc(-c3cccs3)ccc1N)C2 [Compound 2]
b. Nc1ccc(-c2ccc(F)cc2)nc1NC(=O)N1Cc2cncnc2C1 [Comparator D]
Prompt: Exercise: compare a and b ; which one has the greater inhibition at 10 min, 10 µM? Choose, then provide that item's label.
Completion: b

1. COCc1cc2c(cn1)CN(C(=O)Nc1nc(-c3ccc(F)cc3)ccc1N)C2 [Comparator I]
2. Nc1ccc(-c2cccs2)nc1NC(=O)N1Cc2cncnc2C1 [Comparator E]
Prompt: Which entry shows the lesser value of inhibition at 10 min, 10 µM here, 1 or 2 ? Choose, then provide that item's label.
Completion: 1

---

target: CYP2D6 (Homo sapiens, UniProt P10635); construct: Human liver microsomes were obtained from BD Gentest; tissue BD Gentest; host or cells: human liver microsomes; assay: CYP inhibition assay in human liver microsomes (2D6); assay type: in vitro ADME; details: 10 μM
VALUE KIND: inhibition of CYP2D6 (in words)

{"TEST SMILES": "Nc1ccc(-c2ccc(F)cc2)nc1NC(=O)N1Cc2cncnc2C1", "VALUE KIND": "inhibition of CYP2D6 (in words)", "MEASURED VALUE": "significant inhibition"}
{"TEST SMILES": "Nc1ccc(-c2cccs2)nc1NC(=O)N1Cc2cncnc2C1", "VALUE KIND": "inhibition of CYP2D6 (in words)", "MEASURED VALUE": "significant inhibition"}

---

molecular target: HDAC2 (Homo sapiens, UniProt Q92769); assay: HDAC2 recombinant enzymatic assay; type: biochemical; design: purchased BPS Bioscience; settings: 5 h pre-incubation, 5 nM enzyme; read-out: HDAC recombinant enzymatic IC50 HDAC2
Sequence (Q92769 whole entry): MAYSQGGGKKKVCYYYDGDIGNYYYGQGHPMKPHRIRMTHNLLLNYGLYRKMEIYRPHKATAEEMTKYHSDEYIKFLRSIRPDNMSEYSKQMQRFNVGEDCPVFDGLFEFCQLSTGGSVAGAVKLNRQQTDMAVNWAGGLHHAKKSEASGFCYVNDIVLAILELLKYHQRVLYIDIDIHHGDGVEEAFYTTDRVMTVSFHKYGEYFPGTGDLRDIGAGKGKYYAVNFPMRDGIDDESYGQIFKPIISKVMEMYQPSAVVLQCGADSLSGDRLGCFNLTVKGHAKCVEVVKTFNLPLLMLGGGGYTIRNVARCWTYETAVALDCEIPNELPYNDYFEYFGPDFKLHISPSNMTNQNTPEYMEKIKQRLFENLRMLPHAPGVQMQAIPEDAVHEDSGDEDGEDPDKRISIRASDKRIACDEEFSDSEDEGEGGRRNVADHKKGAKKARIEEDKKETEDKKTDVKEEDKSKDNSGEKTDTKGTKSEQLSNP
VALUE KIND: IC50 (nM)

Worked set:
{"TEST SMILES": "Nc1ccc(-c2ccc(F)cc2)nc1NC(=O)N1Cc2nccnc2C1", "IC50 [nM]": 475}
{"TEST SMILES": "Nc1ccc(-c2cccs2)nc1NC(=O)N1Cc2nccnc2C1", "IC50 [nM]": 301}

I. Nc1ccc(-c2ccc(F)cc2)nc1NC(=O)N1Cc2cccnc2C1
II. COCc1cc2c(cn1)CN(C(=O)Nc1nc(-c3ccc(F)cc3F)ccc1N)C2
Prompt: Which entry shows the lesser value of IC50 here, I or II ? Choose, then provide that item's label.
Completion: I
(I: 304 nM, II: 510 nM)
